- Experimental system: mouse proMMP9 (mouse, UniProt P41245 20-730)
- Sequence (P41245 20-730): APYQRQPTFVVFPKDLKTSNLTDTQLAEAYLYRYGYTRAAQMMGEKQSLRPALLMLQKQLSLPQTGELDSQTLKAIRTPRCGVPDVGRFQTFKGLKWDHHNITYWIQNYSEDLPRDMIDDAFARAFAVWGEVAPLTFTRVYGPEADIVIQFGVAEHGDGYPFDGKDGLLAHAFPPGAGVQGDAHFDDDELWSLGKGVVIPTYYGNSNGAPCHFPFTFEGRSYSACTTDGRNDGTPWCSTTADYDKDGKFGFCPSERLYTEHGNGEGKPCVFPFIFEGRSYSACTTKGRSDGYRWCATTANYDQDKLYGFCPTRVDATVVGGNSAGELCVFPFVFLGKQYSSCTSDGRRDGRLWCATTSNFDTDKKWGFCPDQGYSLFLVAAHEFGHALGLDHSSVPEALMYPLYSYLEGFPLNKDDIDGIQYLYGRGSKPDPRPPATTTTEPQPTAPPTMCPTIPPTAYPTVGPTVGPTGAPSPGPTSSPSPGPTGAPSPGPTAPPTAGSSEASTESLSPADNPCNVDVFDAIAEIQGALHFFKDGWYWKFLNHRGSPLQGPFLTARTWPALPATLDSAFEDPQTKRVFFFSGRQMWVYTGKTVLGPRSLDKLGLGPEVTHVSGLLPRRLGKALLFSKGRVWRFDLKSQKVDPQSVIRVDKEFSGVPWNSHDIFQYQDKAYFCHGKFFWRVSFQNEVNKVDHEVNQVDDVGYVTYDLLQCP
- Test method notes: cell-based or functional assay
Please provide measured IC50 (nM), MMP3/MMP9 gelatin assay for the entries that follow.
Express the result in nM but write the number alone.

Noted for F20-VH-GL1-V4-V9-V14/B03-VL-GL1c (antibody, human IgG4 S228P, V domains shown) VH: EVQLVESGGGLVQPGRSLRLSCAASGFTFNDYPMHWVRQAPGKGLEWVSGISSRSGSVGYAESVKGRFTISRDNAKNSLYLQMNSLRAEDTALYYCARDKIYYGSGSYDFYYYYGIDVWGQGTTVTVSS VL: SSELTQDPAVSVALGQTVRITCQGDSLRSYYASWYQQKPGQAPVVVIYGKNNRPSGIPDRFSGSSSGNTVSLTITGAQAEDEADYYCQSRDNIGNHRVVLFGGGTKLTVL : its IC50 (nM), MMP3/MMP9 gelatin assay reads 462

Noted for F20-VH-GL1/B08-VL-GL6c (antibody, human IgG4, V domains shown) VH: EVQLVESGGGLVQPGRSLRLSCAASGFTFNDYPMHWVRQAPGKGLEWVSGISSNSGSVGYADSVKGRFTISRDNAKNSLYLQMNSLRAEDTALYYCARDKIYYGSGSYDFYYYYGMDVWGQGTTVTVSS VL: QSALTQPASVSGSPGQSITISCTGTSNDVGAYNRVSWYQQHPGKAPKLMIYGVSNRPSGVSNRFSGSKSGNTASLTISGLQAEDEADFYCTSYSSSTTSYVVFGGGTKVTVL : its IC50 (nM), MMP3/MMP9 gelatin assay reads 7.91

IC50 (nM), MMP3/MMP9 gelatin assay reported for this binder F20-VH-GL1-V1-V9/B08-VL-GL6c (antibody, human IgG4 S228P, V domains shown) VH: EVQLVESGGGLVQPGRSLRLSCAASGFTFNDYPMHWVRQAPGKGLEWVSGISSQSGSVGYAESVKGRFTISRDNAKNSLYLQMNSLRAEDTALYYCARDKIYYGSGSYDFYYYYGMDVWGQGTTVTVSS VL: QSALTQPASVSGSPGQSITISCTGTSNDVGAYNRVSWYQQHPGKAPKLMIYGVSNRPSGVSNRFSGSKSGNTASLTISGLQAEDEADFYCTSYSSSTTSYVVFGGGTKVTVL : 7.69
